Origin of values: the supplement of paper PMC7125110

B1: glmS ribozyme (parent)
chain: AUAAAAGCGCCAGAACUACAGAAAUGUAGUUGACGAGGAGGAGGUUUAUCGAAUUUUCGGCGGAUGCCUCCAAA

- Variants of: B1
- Test Summary: self-cleavage kobs at 2500 uM GlcN6P; higher = faster cleavage; RNA array
- Test Parameters: with glucosamine-6-phosphate
Variants at the floor of the assay were thinned out.
Quantity Kind: self-cleavage kobs at 2500 uM GlcN6P (s⁻¹)

Sequence Chain | Cmp | Numeric Result
AUAAAAUCGCCAGAACUACAGAAAUGUAGUUGACGAGGAGGAGGUUUAACGCAUUUUCGCUGGAUGCCUCCAAA | < | 1e-05
AUAAAAGCGCCAGAACUACAGAAAUGUAGUUGACGAAGAGGUGGUUUAUCGGAUUUUCGGCGGAUGCCUCAAAA | < | 1e-05
AUAAAAGCGCCAGAACUACAGAAAUGUAGUUGACGAGGAGGAGGUUUAUCGAAUUUUGGGCGGAUGGCUCCAAA | = | 5.23e-05
AUAAAAGCGCCAGAACUACAGAAAUGUAGUUGACGAGGAGGAGGGUUAUCGAAUUUUCCGCGGAUGCCUCCAAA | < | 1e-05
AUAAAGGCGCCAGAACUACAGAAAUGUAGAUGACGAGGAGGAGGUUUAUCGAAUUUUCGGCGGAUGCCUCCAAA | = | 3.73e-05
AUAAAGGCGCCAGAACUACAGAAAUGUAGUUGACGAGGAGGAGGUUUAUCGAAUUUUCGGCGGACGCCUCCAAA | < | 1e-05
AUAAAAGCGCCAGAGCUACAGAAAUGUAGUUGACGAGGAGGAGGAUUAUCGAAUUUUCGGCGGAUGCCUCCAAA | = | 0.046
AUAAAAGCGCCAGAACUACAGAAAUGUAGUUGACGAGGAGGAUGUUUAUCGAAUUUUCGGCGGUUGCCUCCAAA | < | 1e-05
AUAAAAGGGCCAGAGCUACAGAAAUGUAGUUGCCGAGGAGGAGGUUUAUCGAAUUUUCGGCGGAUGCCUCCAAA | < | 1e-05
AUAAAAGCGCCAGAACUACAGAAAUGUAGUUGACGAGGAGGAGAUUUAUCGAAUUUUCGGCGGAUGCGUCCAAA | < | 1e-05
AUAAAAGCGCCAGAACUACAGAAAUGUAGUUGACGAGGAGGAGGUUUAUCGAAUUUUCAGCGGAUGCCUUCAAA | = | 8.29e-05
AUAAAAGCGCCAGAACUACAGAAAUGUAAUUGACGAGGAGGAGGUUUAUCGAAUUUUCGGCGGAUGCCUGCAAA | = | 7.74e-05
AUAAAAGCGCCUGAACUACAGAAAUGUAGCUGACGAGGAGGAGGUUUAUCGAAUUUUCGGCGGAUGCCUCCAAA | = | 0.0109
AUAAAAGCGUCAGAAUUACAGAAAUGUAGUUAACGAGGAGGAGGUUUAUGGAAUUUUCGGCGGAUGCCUCCAAA | = | 9.98e-05
AUAAAAGCGCCAGAACUACAGAAAUGUAGUUGAAGAGGAGGAGGUUUAUCGAAUGUUCGGCGGGUGCCUCCAAA | < | 1e-05
AUAAAAGCGCCAGAACUACAGAAAUGUAGUUGACGAGGACGAGGUUUAUCGAAUUAUCGGCGGAUGCCUCCAAA | = | 0.00115
AUAAAAGCGCUAGCACUACAGAAAUGUAGUUGACGAGGAGGAGGUUUAUCGAAUUUUCGGCGGAUGCCUCCAAA | = | 0.000275
AUAAAAGCGCCAGAACUACAGAAAUGUAGUUGACGAGGAAGUGGUUUACCGAAUUUUGGGCGGGUGCCUGCAAA | < | 1e-05
AUAAAAGCGCCAGAACUACAGAAAUGUAGUUGACGAGGAGGAGGUUUUUCGAAUUUUCGACGGAUGCCUCCAAA | < | 1e-05
AUAAAAGCGCCAGAACUACAGAAAUGUAGUCGACGAGGAGGAGGUUUAUCCAAUUUUCGGCGGAUGCCUCCAAA | < | 1e-05
AUAAAAGCGCCUGAACUACAGAAAUGUAGUUGACGAGGAGGAGGUAUAUCGAAUUUUCGGCGGAUGCCUCCAAA | = | 0.00326
AUAAAAGCGCCAGAAGUACAGAAAUGUAGUUGACGAGGAGGAGGUUUAUCGAAUUUUCGGCGGGUGCCUCCAAA | = | 0.00156
